Values were extracted from paper PMC6930570.

- PROTOCOL TEXT: Reducing activity of the stable radical DPPH
- Assay type: biochemical
- CONDITIONS: 200 µM, 60 min
Could you please classify the records by RA% 200 µM 60 min using these ranges: low end (below 7%), middle (7% to below 70%), high end (70% or more)

Study these solved cases before continuing.
compound="O=C1C(=Cc2ccccc2)C(=O)c2ccccc21 [Compound 4, 2-benzylidene-1H-indene-1,3(2H)-dione]" group_label=middle
compound="CN(C)c1ccc(/C=C\\C=C2C(=O)c3ccccc3C2=O)cc1 [Compound 6]" group_label=middle
compound="CC(C)(C)c1cc(C=C2C(=O)c3ccccc3C2=O)c(O)c(C(C)(C)C)c1 [Compound 9]" group_label="low end"
compound="O=C1C(=Cc2ccc(OCc3ccc(Br)cc3)cc2)C(=O)c2ccccc21 [Compound 8]" group_label="low end"

Which of the defined bands does the recorded RA% 200 µM 60 min of CC(Cc1ccc(O)c(O)c1)C(C)Cc1ccc(O)c(O)c1 (stereo not drawn) [NDGA, Nordihydroguaretic acid, reference compound] sit within?
high end

Which of the defined bands does the recorded RA% 200 µM 60 min of O=C1C(=Cc2cccc(Oc3ccccc3)c2)C(=O)c2ccccc21 [Compound 7] sit within?
high end

Which of the defined bands does the recorded RA% 200 µM 60 min of Cc1ccc(C=C2C(=O)c3ccccc3C2=O)o1 [Compound 3] sit within?
high end

Which of the defined bands does the recorded RA% 200 µM 60 min of O=C1C(=Cc2c[nH]c3ccccc23)C(=O)c2ccccc21 [Compound 12] sit within?
low end

Which of the defined bands does the recorded RA% 200 µM 60 min of O=C1C(=Cc2ccc3[nH]ccc3c2)C(=O)c2ccccc21 [Compound 11] sit within?
middle

* * *

READOUT LABEL: melting point

Field: example entries. Status: answers known.
compound=Cc1ccsc1C=C1C(=O)c2ccccc2C1=O value_measured="171 to 172 °C"
compound=CC(C)(C)c1cc(C=C2C(=O)c3ccccc3C2=O)cc(C(C)(C)C)c1O value_measured="98 to 100 °C"
compound=O=C1C(=Cc2ccc3[nH]ccc3c2)C(=O)c2ccccc21 value_measured="223 to 225 °C"
compound=CC(C)(C)c1cc(C=C2C(=O)c3ccccc3C2=O)c(O)c(C(C)(C)C)c1 value_measured="52 to 54 °C"

Quick one: melting point for O=C1C(=Cc2cccc(Oc3ccccc3)c2)C(=O)c2ccccc21 ?
143 to 145 °C

Quick one: melting point for O=C1C(=Cc2ccc(OCc3ccc(Br)cc3)cc2)C(=O)c2ccccc21 ?
222 to 224 °C

Quick one: melting point for CN(C)c1ccc(/C=C\C=C2C(=O)c3ccccc3C2=O)cc1 ?
85 to 87 °C

Quick one: melting point for O=C1C(=C/C=C\c2ccccc2)C(=O)c2ccccc21 ?
165 to 167 °C

Quick one: melting point for O=C1C(=Cc2c[nH]c3ccccc23)C(=O)c2ccccc21 ?
283 to 285 °C

* * *

- TARGET OR SYSTEM: soybean lipoxygenase (Glycine max, UniProt P08170)
- Construct: purchased Sigma Chemical, Co. (St. Louis)
- Sequence (P08170 whole entry): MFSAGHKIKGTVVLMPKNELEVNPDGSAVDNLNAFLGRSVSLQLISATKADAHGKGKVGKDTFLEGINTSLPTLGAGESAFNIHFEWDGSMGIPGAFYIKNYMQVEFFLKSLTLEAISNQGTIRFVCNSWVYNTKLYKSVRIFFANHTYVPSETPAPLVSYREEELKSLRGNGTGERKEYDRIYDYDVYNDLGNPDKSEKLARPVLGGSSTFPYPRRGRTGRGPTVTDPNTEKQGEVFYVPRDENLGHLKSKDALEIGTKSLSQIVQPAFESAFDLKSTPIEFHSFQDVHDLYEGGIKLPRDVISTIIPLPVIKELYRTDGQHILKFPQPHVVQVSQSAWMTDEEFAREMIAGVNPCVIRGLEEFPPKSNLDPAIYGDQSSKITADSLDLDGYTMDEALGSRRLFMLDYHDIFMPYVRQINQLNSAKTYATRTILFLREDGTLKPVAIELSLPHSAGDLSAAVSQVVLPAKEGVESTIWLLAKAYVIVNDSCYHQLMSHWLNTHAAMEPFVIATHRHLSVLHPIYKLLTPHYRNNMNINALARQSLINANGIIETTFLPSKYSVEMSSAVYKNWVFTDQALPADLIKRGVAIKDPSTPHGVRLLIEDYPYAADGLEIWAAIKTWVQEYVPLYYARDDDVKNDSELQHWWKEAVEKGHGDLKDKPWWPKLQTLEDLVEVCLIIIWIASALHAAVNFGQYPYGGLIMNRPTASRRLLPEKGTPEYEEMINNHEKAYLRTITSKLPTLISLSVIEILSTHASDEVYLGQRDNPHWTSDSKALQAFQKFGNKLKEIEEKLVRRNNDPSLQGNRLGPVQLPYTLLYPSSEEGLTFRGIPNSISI
- PROTOCOL TEXT: Soybean lipoxygenase inhibition in vitro
- Type: biochemical
- CONDITIONS: sodium linoleate substrate, no = no action under the experimental conditions, read-out: LOX (% Inhibition 100 µM)
Threshold rule: inhibition at 100 µM greater than or equal to 40% is class 1; below that, class 0.

Study these solved cases before continuing.
compound=O=C1C(=C/C=C\c2ccccc2)C(=O)c2ccccc21 target_or_system="soybean lipoxygenase (Glycine max, UniProt P08170)" group_label="class 0"
compound=O=C1C(=Cc2c[nH]c3ccccc23)C(=O)c2ccccc21 target_or_system="soybean lipoxygenase (Glycine max, UniProt P08170)" group_label="class 1"

Quick check, inhibition at 100 µM >= 40%? O=C1C(=Cc2ccc3[nH]ccc3c2)C(=O)c2ccccc21
class 0

Quick check, inhibition at 100 µM >= 40%? O=C1C(=Cc2cccc(Oc3ccccc3)c2)C(=O)c2ccccc21
class 1

Quick check, inhibition at 100 µM >= 40%? O=C1C(=Cc2ccccc2)C(=O)c2ccccc21
class 0

Quick check, inhibition at 100 µM >= 40%? O=C1C(=Cc2ccc(OCc3ccc(Br)cc3)cc2)C(=O)c2ccccc21
class 0

Quick check, inhibition at 100 µM >= 40%? Cc1ccsc1C=C1C(=O)c2ccccc2C1=O
class 1

Quick check, inhibition at 100 µM >= 40%? Cc1ccc(C=C2C(=O)c3ccccc3C2=O)o1
class 0

Quick check, inhibition at 100 µM >= 40%? CN(C)c1ccc(/C=C\C=C2C(=O)c3ccccc3C2=O)cc1
class 0
